# TARGET_UNDER_TEST: human TLR8 (Homo sapiens)
# Sequence (Q9NR97 27-1041): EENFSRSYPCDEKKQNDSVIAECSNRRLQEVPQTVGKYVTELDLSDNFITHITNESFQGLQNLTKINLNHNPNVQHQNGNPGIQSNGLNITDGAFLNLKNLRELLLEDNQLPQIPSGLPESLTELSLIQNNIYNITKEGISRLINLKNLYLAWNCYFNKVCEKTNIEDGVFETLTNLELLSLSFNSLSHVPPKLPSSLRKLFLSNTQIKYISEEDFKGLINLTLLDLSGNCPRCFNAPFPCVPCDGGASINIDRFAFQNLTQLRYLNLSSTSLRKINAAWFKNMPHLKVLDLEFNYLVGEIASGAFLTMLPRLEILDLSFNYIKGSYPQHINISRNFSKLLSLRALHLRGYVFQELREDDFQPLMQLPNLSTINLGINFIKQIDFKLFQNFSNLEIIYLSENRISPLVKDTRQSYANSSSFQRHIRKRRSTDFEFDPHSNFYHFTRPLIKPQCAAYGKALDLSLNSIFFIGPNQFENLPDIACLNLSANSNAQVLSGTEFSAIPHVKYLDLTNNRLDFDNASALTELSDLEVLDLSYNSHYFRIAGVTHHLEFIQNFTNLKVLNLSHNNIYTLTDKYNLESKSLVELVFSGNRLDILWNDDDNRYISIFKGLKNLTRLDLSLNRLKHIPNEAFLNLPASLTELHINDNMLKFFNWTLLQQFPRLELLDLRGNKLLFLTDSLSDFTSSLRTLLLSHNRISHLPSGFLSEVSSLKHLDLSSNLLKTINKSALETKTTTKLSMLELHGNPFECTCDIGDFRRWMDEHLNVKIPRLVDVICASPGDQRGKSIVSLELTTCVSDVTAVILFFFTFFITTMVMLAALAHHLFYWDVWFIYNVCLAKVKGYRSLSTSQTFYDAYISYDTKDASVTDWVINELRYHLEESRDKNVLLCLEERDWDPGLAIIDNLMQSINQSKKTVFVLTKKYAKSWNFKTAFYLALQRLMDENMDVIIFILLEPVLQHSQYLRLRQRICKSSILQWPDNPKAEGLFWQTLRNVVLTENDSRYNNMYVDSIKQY
# ASSAY_COMMENT: TLR8 inhibition reporter assay (HEK-Blue cells, SEAP reporter)
# STATED_CONDITIONS: HEK-Blue cells overexpressing human TLR8; stimulated with R848 15.9 μM; 22 hour incubation; SEAP readout
pIC50: −log10 of the molar value.
ENDPOINT_LABEL: pIC50

Known pIC50 results, listed for orientation:
INSERT INTO measurements (compound, reported) VALUES
  ('Cc1cc(C2CCN(C3CC4CCC(C3)N4CC3CC3)CC2)cn2cc(-c3ccc(S(C)(=O)=O)cc3)nc12 (single isomer, unassigned)', '< 4.60'),
  ('CC(C)CN1CCC(N2CCC(c3cc(F)c4nc(-c5ccc(S(C)(=O)=O)cc5)cn4c3)CC2)CC1', '< 4.30'),
  ('COc1ccc(-c2cn3c(n2)CCC(C2CCN(C4CCN(CC(C)C)CC4)CC2)C3)cc1OC (single isomer, unassigned) [Example 33]', '< 4.30'),
  ('CC(C)N1CCC(N2CCC(c3cc(F)c4nc(-c5ccc(S(C)(=O)=O)cc5)cn4c3)CC2)CC1', '< 4.30'),
  ('CC(C)N1C2CCC1CC(N1CCC(c3cc(F)c4nc(-c5ccc(S(C)(=O)=O)cc5)cn4c3)CC1)C2 (single isomer, unassigned) [Example 69]', '< 4.30'),
  ('Cc1cc(-c2ccc(N3CCN(CC4CC4)CC3)cc2)cn2cc(-c3ccc(S(C)(=O)=O)cc3)nc12', 4.83);

// pIC50 lookup, compound = CS(=O)(=O)c1ccc(-c2cn3cc(C4CCN(C5CC6CCC(C5)N6CC5CC5)CC4)cc(F)c3n2)cc1 (single isomer, unassigned) [Example 116] , result: 4.85

// pIC50 lookup, compound = "Cc1cc(C2CCN(C3CCN(CC(C)C)CC3)CC2)cn2cc(-c3ccc(S(C)(=O)=O)cc3)nc12" , result: < 4.30

// pIC50 lookup, compound = COc1ccc(-c2cn3c(n2)CCC(C2CCN(C4CCN(C(C)C)CC4)CC2)C3)cc1OC (racemic) [Example 34] , result: < 4.30
